# assay.text: cell viability in Huh7 cells, primary screen, cytotoxicity control for HCV replication inhibitor project, CellTiter-Glo luminescence, basal, 48 h (AID 1143);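 further: Huh7 hepatoma cells carrying a hepatitis C replication reporter with no stimulus; test concentration not given here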
# measurement.setup: Huh7 HCV replicon, higher = more signal, called active from +8 up or from −8 down
Where z-score equals or exceeds -3, the correct label is Condition met; where it does not, the label is Condition not met.

Quick check: does Cc1ccc(S[C@]2(C(=O)O)CC(=O)N(C3Cc4ccccc4C3)[C@@H]2c2ccc(CO)cc2I)cc1 have z-score greater than or equal to -3?
Condition met

Quick check: does CCOC(=O)C1=CC[C@@H](c2ccccc2)N(S(=O)(=O)c2ccc(C)cc2)[C@H]1C(=O)OCC have z-score greater than or equal to -3?
Condition not met

Quick check: does COc1ccc(C(O)C2C=CC3C(=O)N(c4ccccc4)C(=O)C3N2Nc2ccc([N+](=O)[O-])cc2)cc1OCc1ccccc1 (centres undefined) have z-score greater than or equal to -3?
Condition met

Quick check: does COCCCNC(=O)[C@@]1(CCC(=O)OC(C)(C)C)N=C(c2ccc(OCCCO)cc2)O[C@H]1c1ccccc1CN=[N+]=[N-] have z-score greater than or equal to -3?
Condition met

Quick check: does COCCOC(=O)N1C(=O)[C@@]2(c3cc(C#CCCO)ccc31)[C@H](c1ccccc1OCCO)N1[C@H](c3ccccc3)[C@H](c3ccccc3)OC(=O)[C@H]1[C@@H]2C(=O)N1CCN(c2ncccn2)CC1 have z-score greater than or equal to -3?
Condition met

Quick check: does COCCOC(=O)N1C(=O)[C@@]2(c3cc(C#CCNC(N)=O)ccc31)[C@H](c1ccc(O)cc1)N1[C@H](c3ccccc3)[C@H](c3ccccc3)OC(=O)[C@H]1[C@@H]2C(=O)NC[C@H](O)c1ccccc1 have z-score greater than or equal to -3?
Condition met

Quick check: does COCC(=C=CC[C@H](O)c1ccc(OCCO)cc1)C[C@H](O)c1cc(Cl)cc(Cl)c1O have z-score greater than or equal to -3?
Condition not met

Quick check: does CN(C)C(=O)[C@@]1(CCC(=O)OC(C)(C)C)N=C(c2ccc(OCCCO)cc2)O[C@H]1c1ccccc1 have z-score greater than or equal to -3?
Condition not met

Quick check: does CC(=CC1CCCCC1)[C@@H](NC(=O)c1ccc(C(F)(F)F)cc1)c1ccc(-c2ccccc2)cc1 have z-score greater than or equal to -3?
Condition met

Quick check: does COC(=O)C[C@H]1O[C@]2(C(=O)N(Cc3ccccc3)c3ccc(NC(C)=O)cc32)[C@@H](C)[C@@H]1[Si](C)(C)c1ccc(OC)cc1 have z-score greater than or equal to -3?
Condition met

Quick check: does COc1ccc(C#Cc2ccc3c(c2)[C@]2(C(=O)N3)[C@H](c3ccc(O)cc3)N3[C@H](c4ccccc4)[C@H](c4ccccc4)OC(=O)[C@H]3[C@@H]2C(=O)NC[C@H](O)c2ccccc2)cc1 have z-score greater than or equal to -3?
Condition not met

Quick check: does CC(C)C(O)C1C=CC2C(=O)N(c3ccccc3)C(=O)C2N1Nc1ccc(C#N)cc1 (centres undefined) have z-score greater than or equal to -3?
Condition met

Quick check: does C=CCNC(=O)[C@H]1[C@@H]2C(=O)O[C@@H](c3ccccc3)[C@@H](c3ccccc3)N2[C@@H](c2ccc(O)cc2)[C@]12C(=O)N(C(=O)OCCOC)c1ccc(C#CCCO)cc12 have z-score greater than or equal to -3?
Condition met

* * *

# assay.text: adipocyte viability effects, profiling panel, cell-based, 3T3-L1 adipocytes, calcein-AM fluorescence, 48 h, basal (AID 1163); further: test concentration not given here
# measurement.setup: 3T3-L1 adipocytes viability, higher = more signal
property.name: z-score

So for CC(C)NC(=O)[C@@]1(Cc2ccccc2I)c2ccccc2C(=O)N(Cc2ccccc2)[C@H]1c1ccc(CO)cc1 , the logged z-score turned out to be -0.405

So for CN(C)C(=O)[C@@]1(CCC(=O)OC(C)(C)C)N=C(c2ccc(OCCCO)cc2)O[C@H]1c1ccccc1 , the logged z-score turned out to be 0.687

So for COC(=O)[C@@]1(Cc2ccccc2N=[N+]=[N-])COC(c2ccc(OCCCO)cc2)=N1 , the logged z-score turned out to be -1.01

So for CC=CC(O)C1C=CC2C(=O)N(c3ccccc3)C(=O)C2N1Nc1ccc(C(C)C)cc1 (stereo not given) , the logged z-score turned out to be 0.146

So for N#Cc1ccc(NN2C(C(O)C3CCCCC3)C=CC3C(=O)N(c4ccccc4)C(=O)C32)cc1 (stereo not given) , the logged z-score turned out to be -0.515

* * *

# assay.text: inhibitors of hydroxyurea-induced Chk1 phosphorylation, primary screen, imaging, HeLa, phospho-Chk1 antibody, percent positive cells (AID 1186)
# measurement.setup: hydroxyurea-induced phospho-Chk1 immunofluorescence imaging, higher = more signal
property.name: z-score
# answer = number (no unit)

So for NC(=O)NCC#Cc1ccc2c(c1)[C@]1(C(=O)N2)[C@H](C(=O)N2CCCCCCC2)[C@H]2C(=O)O[C@H](c3ccccc3)[C@H](c3ccccc3)N2[C@@H]1c1ccc(OCCO)cc1 , the logged z-score turned out to be 0.109

So for COCC1=C2[C@@H](CCc3ccccc3)OB(O)C[C@@H]2[C@@H]2C(=O)N(Cc3ccccc3)C(=O)[C@@H]2C1 , the logged z-score turned out to be 0.141

So for [N-]=[N+]=Nc1ccccc1[C@H]1OC(c2ccc(OCCCO)cc2)=N[C@@]1(CCS(=O)(=O)c1ccccc1)C(=O)O , the logged z-score turned out to be 0.189

So for Cc1cc(C)c(C(O)C2C=CC3C(=O)N(C)C(=O)C3N2Nc2ccccc2)c(C)c1 (centres undefined) , the logged z-score turned out to be 0.195

* * *

# assay.text: splicing luciferase reporter signal modulators, primary screen, spliceosome inhibition project, cell-based, HEK293, splice +/- reporter (AID 1101);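 further: HEK293 cells carrying a splicing-competent luciferase reporter gene; test concentration not given here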
# measurement.setup: luminescence, 24 h, higher = more signal, called active from +8 up or from −8 down
property.name: z-score
# answer = number (no unit)

So for CC(C)NC(=O)[C@@H]1c2ccccc2C(=O)N(Cc2ccccc2)[C@H]1c1ccc(CO)cc1 , the logged z-score turned out to be 0.00875

So for CN1C=C(C(=O)OCCS(C)(=O)=O)C(C(=O)OCCS(C)(=O)=O)=CC(CCCO)=CC1C1CC1 (stereo not drawn) , the logged z-score turned out to be 0.788

So for Cc1ccc(S[C@]2(C(=O)NC3CC3)CC(=O)N(C3CCCCC3)[C@@H]2c2ccc(CO)cc2I)cc1 , the logged z-score turned out to be -0.575

So for O=c1oc(-c2ccccc2)nc2cc(Br)ccc12 , the logged z-score turned out to be -0.288

So for CCN(CC)c1ccc(N2CC=CC34O[C@@H]5/C=C\CCCOC(=O)C5[C@H]3C(=O)N(C(CO)C(C)C)[C@@H]4C2=O)cc1 (stereo partly drawn) , the logged z-score turned out to be 0.167

So for COCCOC(=O)N1C(=O)[C@@]2(c3cc(C#CCC(C(=O)OC)C(=O)OC)ccc31)[C@H](c1ccccc1OCCO)N1[C@H](c3ccccc3)[C@H](c3ccccc3)OC(=O)[C@H]1[C@@H]2C(=O)N1CCc2cc(OC)c(OC)cc2C1 , the logged z-score turned out to be -0.988

So for N#Cc1ccc(NN2C(C(O)c3cccs3)C=CC3C(=O)N(c4ccccc4)C(=O)C32)cc1 (stereo not drawn) , the logged z-score turned out to be -0.626

So for C=C(COC)/C(=C/C[C@H](OC(=O)c1ccncc1)c1cccc(OCCO)c1)c1cc(C(=O)OC)ccc1OC , the logged z-score turned out to be -0.147

* * *

# assay.text: HepG2 liver cancer cell viability effects, profiling panel, resazurin fluorescence, 24 h, PK04 Diversity Set (AID 1172); further: test concentration not given here
# measurement.setup: higher = more signal
I'd appreciate it if you could supply z-score values for the items below.
# answer = number (no unit)

So for C[C@]1(C(=O)NCc2ccccc2)c2ccccc2C(=O)N(Cc2ccc(OC(F)(F)F)cc2)[C@H]1c1ccc(CO)cc1 , the logged z-score turned out to be 0.333

So for C=CCN1C(=O)[C@]2(O[C@H](CCO)[C@@H]([Si](C)(C)c3ccc(OC)cc3)[C@@H]2C)c2cc(NC(=O)[C@H](C)O)ccc21 , the logged z-score turned out to be -0.646

So for CC1CC/C=C\[C@H]2OC34C=CCN(Cc5ccccc5)C(=O)[C@H]3N(CCCCCO)C(=O)[C@@H]4C2C(=O)O1 (stereo not given in full) , the logged z-score turned out to be -0.0371

So for COc1c(C)cc(-c2cc3c(c(-c4ccc(Oc5ccccc5)cc4)n2)[Si](C(C)C)(C(C)C)OC3)cc1C , the logged z-score turned out to be -0.566

So for CC(=O)NCCCC[C@@H]1NC(=O)[C@@H]2C[C@H](C(=O)NCCCCCCNC(=O)CS)[C@H](c3ccc(O)cc3)N2C1=O , the logged z-score turned out to be 0.107

So for CCOC(=O)C[C@H]1[C@H](OC(=O)c2ccccc2-c2ccccc2)[C@@H](NC(=O)c2ccc3ccccc3c2)c2cc(OCCCO)ccc2N1C(=O)c1ccc2ccccc2n1 , the logged z-score turned out to be 1.33

So for CCOc1cc(C(O)C2C=CC3C(=O)N(c4ccccc4)C(=O)C3N2Nc2ccc([N+](=O)[O-])cc2)ccc1O (stereo not given) , the logged z-score turned out to be -0.506

So for COc1ccc([Si](C)(C)[C@H]2[C@H](CCn3cc([C@H](O)c4ccccc4)nn3)O[C@@]3(C(=O)N(Cc4cccc(N5CCC5=O)c4)c4ccccc43)[C@@H]2C)cc1 , the logged z-score turned out to be 0.429

So for COc1ccc([Si](C)(C)[C@@H]2[C@@H](CC(=O)N(CCO)Cc3ccccc3)O[C@]3(C(=O)N(C)c4ccccc43)[C@H]2C)cc1 , the logged z-score turned out to be -1.36

So for CC(C)N1CC=CC23O[C@@H]4C=CCOC(=O)[C@@H]4[C@H]2C(=O)N(CCO)[C@@H]3C1=O (stereo not given in full) , the logged z-score turned out to be 0.545

So for CC(C)(C)N1CC=CC23O[C@@H]4/C=C\CCCOC(=O)C4[C@H]2C(=O)N(CCO)[C@@H]3C1=O (stereo not given in full) , the logged z-score turned out to be -0.636

So for O=C1OCCC=C[C@H]2OC34C=CCN(Cc5ccccc5)C(=O)[C@H]3N(CCCCCO)C(=O)[C@@H]4C12 (stereo not given in full) , the logged z-score turned out to be 1.12

So for COc1ccc(CCNC(=O)[C@@]2(c3ccc([N+](=O)[O-])cc3)CC(=O)N(CC34CC5CC(CC(C5)C3)C4)[C@@H]2c2ccc(CO)cc2)cc1 , the logged z-score turned out to be -1.86

So for NCCCCCNC(=O)[C@H]1C[C@H]2C(=O)NCC(=O)N2[C@H]1c1cccc(OCCO)c1 , the logged z-score turned out to be 0.871

So for CCCCC=C[C@@H](NC(=O)c1ccc(C(=O)OC)cc1)c1ccccc1 , the logged z-score turned out to be 2.26

So for C=C(COC)C(=O)CC[C@@H](OC(=O)c1cccnc1)c1ccc(CO)o1 , the logged z-score turned out to be 0.114

So for COC(=O)[C@@]1(Cc2ccccc2)[C@H]2c3cc(C(=O)N4CCCC4)n(Cc4ccc(C)o4)c3C[C@H]2CN1C(=O)c1ccccc1 , the logged z-score turned out to be -1.59

So for [N-]=[N+]=Nc1ccccc1[C@@H]1OC(c2ccc(OCCCO)cc2)=N[C@]1(CCS(=O)(=O)c1ccccc1)C(=O)N1CCOCC1 , the logged z-score turned out to be -0.167

So for CCCCCN1CC=CC23O[C@@H]4C=CCOC(=O)[C@@H]4[C@H]2C(=O)N(CCCO)[C@@H]3C1=O (stereo not given in full) , the logged z-score turned out to be 0.22

So for C=CCOC(=O)[C@@H]1[C@H]2C(=O)O[C@H](c3ccccc3)[C@H](c3ccccc3)N2[C@H](c2ccc(OCCOC(=O)[C@@H]3C[C@@H]4C(=O)NCC(=O)N4[C@@H]3c3cccc(OCCO)c3)cc2)[C@@]12C(=O)Nc1ccc(I)cc12 , the logged z-score turned out to be 0.0068

So for O=C1OCC=C[C@H]2OC34C=CCN(c5ccc6ccccc6c5)C(=O)[C@H]3N(CCCO)C(=O)[C@@H]4[C@@H]12 (stereo not given in full) , the logged z-score turned out to be -0.364

So for COCCOC(=O)N1C(=O)[C@@]2(c3ccccc31)[C@H](c1ccc(O)cc1)N1[C@H](c3ccccc3)[C@H](c3ccccc3)OC(=O)[C@H]1[C@@H]2C(=O)N1CCc2cc(OC)c(OC)cc2C1 , the logged z-score turned out to be 0.129

So for COC(=O)C[C@H]1O[C@]2(C(=O)N(Cc3ccccc3)c3ccc(NC(C)=O)cc32)[C@@H](C)[C@@H]1[Si](C)(C)c1ccc(OC)cc1 , the logged z-score turned out to be -1.11

So for C[N+](C)(C)CCCCCCNC(=O)[C@H]1C[C@H]2C(=O)N3CCC[C@H]3C(=O)N2[C@H]1c1ccc(O)cc1 , the logged z-score turned out to be 0.202

So for Cc1ccc([C@H]2C(C(=O)O)=C[C@@H](C)N2S(=O)(=O)c2ccc(C)cc2)cc1 , the logged z-score turned out to be -0.534

So for CC=CC(O)C1C=CC2C(=O)N(c3ccccc3)C(=O)C2N1Nc1ccc(C(C)C)cc1 (stereo not given) , the logged z-score turned out to be -1.76

So for O=C/C=C/c1ccc2c(c1)OCO2 , the logged z-score turned out to be 0.134

So for CC(C)(C)OC(=O)CC[C@@]1(C(=O)O)N=C(c2ccc(OCCCO)cc2)O[C@@H]1c1ccccc1N=[N+]=[N-] , the logged z-score turned out to be 0.166

So for O=c1cccc(CCc2ccccc2)o1 , the logged z-score turned out to be -0.523

So for C=CC[C@@]1(C(=O)O)N=C(c2ccc(OCCCO)cc2)O[C@@H]1c1ccccc1N=[N+]=[N-] , the logged z-score turned out to be 0.0725

Numbers sourced from PubChem BioAssay.
